Target: T1, PARD3B_1, Q8TEW8
T1 sequence (Q8TEW8 196-299, limits assumed, looked up): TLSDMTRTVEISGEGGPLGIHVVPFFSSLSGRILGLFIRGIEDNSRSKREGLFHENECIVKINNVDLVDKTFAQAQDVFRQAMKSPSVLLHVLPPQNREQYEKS
Assay: holdup assay
Set-up: key: below the threshold = too weak to quantify, mostly under pKd 3.1 to 4
Settings: plain residues with an end cap or a label only (N-terminal biotin on a linker: ahx)

Binder: AKPQPVDSWV [ARVCF, O00192]
pKd: below the threshold

Binder: KDECVIATEV [DLL1, O00548]
pKd: below the threshold

Binder: KEYDDELTFF [USH1C, Q9Y6N9]
pKd: 4.52

Binder: ADENEQVSAV [RAPGEF6, Q8TEU7]
pKd: below the threshold

Binder: VNENQKEYFF [CNTNAP4, Q9C0A0]
pKd: 4.57

Binder: SKKNELFSNL [NHERF1, O14745]
pKd: below the threshold

Binder: HSATSVHTSV [MTMR1, Q13613]
pKd: below the threshold

Binder: YNSFLSVTTV [PDZRN3, Q9UPQ7]
pKd: below the threshold

Binder: PKMKLNETSF [SHKBP1, Q8TBC3]
pKd: below the threshold

Binder: SAPATLSSRA [PDLIM2, Q96JY6]
pKd: below the threshold
